Target: Pfs48/45 D3 (Plasmodium falciparum 3D7, UniProt Q8I6T1)
Sequence (Q8I6T1 287-428): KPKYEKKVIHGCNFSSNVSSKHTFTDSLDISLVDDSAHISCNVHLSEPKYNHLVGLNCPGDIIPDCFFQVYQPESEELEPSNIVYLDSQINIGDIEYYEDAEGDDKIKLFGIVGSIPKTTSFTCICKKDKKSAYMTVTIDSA
Assay: ELISA
Conditions: both partners purified
observable: binding result

binder="RUPA-50 (antibody, V domains shown, human IgG1; source: recombinant human IgG1, 293T (Protein A purified) or GenScript) VH: QVHLVESGGGVVQPGRSLRLSCAASGFTFRSYGMHWVRRVPGKGLEWVATISYDETFKDYPDSVKGRFTISRDNSKNTLFLQMNSLRPADTAVYYCAKDRAHSMHYFEYWGRGTLVTVSS VL: SYELTQPPSVSVSPGQTARLTCSGDALPKKFAYWYQLKSGQAPVLVIYEDSKRPSGIPERFSGSSSGTTATLTISGAQVEDEADYYCYSRDGSGDQKNIFGGGTKLTVL" recorded_measurement=binds
